# Substrate: NC(=O)N[C@@H](O)C(=O)O
# experimental-details: purified protein
# Type: biochemical, Escherichia coli
# details: 3 mM NAD+ (saturating), 30 °C, value in parentheses is standard error, His-tag kept
reported-endpoint: kcat (s⁻¹)

>>> measured_result("(S)-ureidoglycolate dehydrogenase (AllD) (Escherichia coli K-12; R259A) (protein, full length, modified pET28b with N-terminal His-tag and TEV site, expressed in E. coli BL21(DE3); tag cut for crystals, kept on mutant enzymes for kinetics; homodimer) MKISRETLHQLIENKLCQAGLKREHAATVAEVLVYADARGIHSHGAVRVEYYAERISKGGTNREPEFRLEETGPCSAILHADNAAGQVAAKMGMEHAIKTAQQNGVAVVGISRMGHSGAISYFVQQAARAGFIGISMCQSDPMVVPFGGAEIYYGTNPLAFAAPGEGDEILTFDMATTVQAWGKVLDARSRNMSIPDTWAVDKNGVPTTDPFAVHALLPAAGPKGYGLMMMIDVLSGVLLGLPFGRQVSSMYDDLHAGANLGQLHIVINPNFFSSSELFRQHLSQTMRELNAITPAPGFNQVYYPGQDQDIKQRKAAVEGIEIVDDIYQYLISDALYNTSYETKNPFAQ")
12
